- Tested on: Inhibin beta A chain (activin A)
- assay protocol: INHBA (activin A) binders on microarrays, primary screen, biochemical, small-molecule microarray, 635 nm fluorescence scan (AID 1107);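 also: mouse activin A protein probed at 4.33 µg/mL on printed slides; score merges bound-protein fluorescence near 667 nm with spot signal-to-noise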
- test settings: small-molecule microarray binding, higher = more signal
Think of 0.6 as a floor: if composite z-score stands on it or above, it is label 1; beneath it, label 0.

{"columns": ["compound", "classification"],
 "data": [
  ["COC(=O)[C@@]1(Cc2ccccc2)[C@H]2c3cc(C(=O)N(C)C)n(Cc4ccc(Cl)c(C(F)(F)F)c4)c3C[C@H]2CN1C(=O)c1ccccc1", "label 1"],
  ["CCCCC(=C=CC[C@H](O)c1ccccc1OCCO)CCO", "label 1"],
  ["COc1ccc(CCNC(=O)[C@@H]2c3ccccc3C(=O)N(C(C)C)[C@H]2c2ccc(CO)cc2)cc1", "label 0"],
  ["O=C1C2C=CC(C(O)C3CC=CCC3)N(Nc3ccc([N+](=O)[O-])cc3)C2C(=O)N1c1ccccc1 (centres undefined)", "label 1"],
  ["O=C1O[C@H](c2ccccc2)[C@H](c2ccccc2)N2[C@H]1[C@@H](C(=O)N1CCCCCCC1)[C@]1(C(=O)Nc3ccc(C#CCCO)cc31)[C@H]2c1ccc(O)cc1", "label 1"],
  ["CCCCCN1CC=CC23O[C@@H]4/C=C\\CCCOC(=O)C4[C@H]2C(=O)N(CCO)[C@@H]3C1=O (some centres undefined)", "label 1"],
  ["COCCCNC(=O)[C@@]1(c2ccc([N+](=O)[O-])cc2)CC(=O)N(C2CCCCC2)[C@@H]1c1ccc(CO)cc1I", "label 1"],
  ["COCCOC(=O)N1C(=O)[C@@]2(c3cc(C#CCNC(N)=O)ccc31)[C@H](C(=O)Nc1nc3ccccc3s1)[C@H]1C(=O)O[C@H](c3ccccc3)[C@H](c3ccccc3)N1[C@@H]2c1ccc(O)cc1", "label 1"],
  ["CC(=O)NCCCC[C@@H]1NC(=O)[C@H]2C[C@@H](C(=O)NCCCCCN)[C@@H](c3ccc(O)cc3)N2C1=O", "label 1"],
  ["COc1ccc(NN2C(C(O)c3ccccc3)C=CC3C(=O)N(C4CCCCC4)C(=O)C32)cc1 (centres undefined)", "label 1"],
  ["C[N+](C)(C)CCCC[C@@H]1NC(=O)[C@H]2C[C@@H](C(=O)O)[C@@H](c3ccc(O)cc3)N2C1=O", "label 1"],
  ["CC(C)c1ccc(NN2C(C(O)C3CCCCC3)C=CC3C(=O)N(c4ccccc4)C(=O)C32)cc1 (centres undefined)", "label 1"],
  ["C=CC[C@]1(C(N)=O)N=C(c2ccc(OCCCO)cc2)O[C@H]1c1ccccc1N=[N+]=[N-]", "label 1"],
  ["CCOC(=O)C[C@H]1[C@H](OC(=O)c2cc3ccccc3oc2=O)[C@@H](NC(=O)Cc2ccc(OC)cc2)c2cc(OCCCO)ccc2N1C(=O)Cc1ccc(OC)cc1", "label 0"],
  ["CN1C(=O)C2C=CC(C(O)COCc3ccccc3)N(Nc3ccc([N+](=O)[O-])cc3[N+](=O)[O-])C2C1=O (centres undefined)", "label 1"],
  ["C=CC[C@]1(C(=O)NCC(O)CO)N=C(c2ccc(OCCCO)cc2)O[C@H]1c1ccccc1CN=[N+]=[N-] (some centres undefined)", "label 0"],
  ["CCCCCN1CC=CC23O[C@@H]4/C=C\\CCCOC(=O)C4[C@H]2C(=O)N(CCCCCO)[C@@H]3C1=O (some centres undefined)", "label 0"],
  ["COCCOC(=O)N1C(=O)[C@@]2(c3cc(C#CCNC(N)=O)ccc31)[C@H](c1ccccc1OCCO)N1[C@H](c3ccccc3)[C@H](c3ccccc3)OC(=O)[C@H]1[C@@H]2C(=O)N1CCCCCCC1", "label 1"],
  ["COC(=O)[C@@]1(Cc2ccccc2)[C@H]2c3cc(C(=O)N(C)C)n(Cc4nc5ccccc5[nH]4)c3C[C@H]2CN1C(=O)c1ccccc1", "label 1"],
  ["CCCNC(=O)[C@@]1(Sc2ccc(C)cc2)CC(=O)N(Cc2cc(C(F)(F)F)cc(C(F)(F)F)c2)[C@@H]1c1ccc(CO)cc1", "label 0"],
  ["CCCCN1CC=CC23O[C@@H]4/C=C\\CCCOC(=O)C4[C@H]2C(=O)N(CCCCCCO)[C@@H]3C1=O (some centres undefined)", "label 1"],
  ["COCCOC(=O)N1C(=O)[C@@]2(c3cc(C#CCNC(N)=O)ccc31)[C@H](C(=O)N1CCN(c3ncccn3)CC1)[C@H]1C(=O)O[C@H](c3ccccc3)[C@H](c3ccccc3)N1[C@@H]2c1ccc(O)cc1", "label 0"],
  ["COc1cccc(C)c1NC(=O)O[C@H]1[C@H](OC(=O)Nc2ccccc2)[C@@H](OC(=O)Nc2ccccc2)[C@@H](OC)O[C@@H]1CO", "label 0"],
  ["C=C(C)C1CN([C@H](CO)c2ccccc2)C(=O)/C1=C\\c1ccccc1 (some centres undefined)", "label 1"],
  ["COc1ccc(C(=O)Nc2ccc(CN3C(=O)[C@@]4(O[C@@H](CC(=O)N(CCO)Cc5ccccc5)[C@H]([Si](C)(C)c5ccc(OC)cc5)[C@H]4C)c4ccccc43)cc2)cc1", "label 0"],
  ["O=C/C=C/c1ccc(-c2ccccc2)cc1", "label 1"],
  ["CCCCCCc1nc(-c2ccc(OC)nc2)c(C)c2c1[Si](C(C)C)(C(C)C)OC2", "label 0"],
  ["COCCCNC(=O)[C@]1(Cc2ccccc2N=[N+]=[N-])N=C(c2ccc(OCCCO)cc2)O[C@@H]1c1ccccc1", "label 1"]
]}

====

- system: Albumin (Bos taurus) (UniProt P02769)
- Sequence (P02769 whole entry, looked up): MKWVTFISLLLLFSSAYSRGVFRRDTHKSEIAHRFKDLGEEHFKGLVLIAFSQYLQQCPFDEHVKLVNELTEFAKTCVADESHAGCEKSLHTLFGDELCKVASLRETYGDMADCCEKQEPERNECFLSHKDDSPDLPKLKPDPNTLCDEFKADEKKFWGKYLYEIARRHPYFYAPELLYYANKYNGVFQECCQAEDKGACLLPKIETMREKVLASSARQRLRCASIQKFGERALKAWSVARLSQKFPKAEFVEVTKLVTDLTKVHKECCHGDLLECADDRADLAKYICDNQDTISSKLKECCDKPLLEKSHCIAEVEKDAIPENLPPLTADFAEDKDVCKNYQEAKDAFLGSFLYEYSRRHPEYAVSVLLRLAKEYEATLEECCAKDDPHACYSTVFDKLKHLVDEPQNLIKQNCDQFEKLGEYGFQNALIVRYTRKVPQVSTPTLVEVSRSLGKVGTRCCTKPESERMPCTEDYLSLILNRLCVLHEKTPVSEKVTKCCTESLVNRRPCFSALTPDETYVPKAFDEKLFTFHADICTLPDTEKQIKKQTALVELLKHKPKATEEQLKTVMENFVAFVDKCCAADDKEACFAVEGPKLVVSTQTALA
- assay protocol: bovine serum albumin binders on microarray, profiling panel, artefact control for SMM control protein annotation, biochemical, small-molecule microarray, Alexa647 label, 635/667 nm fluorescence (AID 1118);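 also: score merges 667 nm emission intensity and signal-to-noise per printed compound spot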
- test settings: BSA-A647 binding, fluorescence 635 nm, higher = more signal
Here the recorded composite z-score is given for each entry.

{"columns": ["cpd smiles", "composite z-score"],
 "data": [
  ["C=CCN1C(=O)[C@]2(O[C@H](CCO)[C@@H]([Si](C)(C)c3ccc(OC)cc3)[C@@H]2C)c2cc(N3C(=O)c4ccccc4Oc4ccccc43)ccc21", 0.493],
  ["O=C1O[C@H](c2ccccc2)[C@H](c2ccccc2)N2[C@H]1[C@@H](C(=O)Nc1nc3ccccc3s1)[C@]1(C(=O)Nc3ccccc31)[C@H]2c1ccccc1OCCO", 0.939],
  ["O=C1C[C@@](C(=O)NCC(F)(F)F)(c2ccc([N+](=O)[O-])cc2)[C@@H](c2ccc(CO)cc2I)N1CC12CC3CC(CC(C3)C1)C2", 0.506]
]}

====

- Tested on: wheat germ agglutinin (Triticum aestivum), Alexa647-labelled
- assay protocol: wheat germ agglutinin binders on compound microarrays, profiling panel, artefact control for SMM control-protein annotation, biochemical, small-molecule microarray, 635/667 nm fluorescence (AID 1140);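 also: score merges 667 nm feature emission with signal to noise over triplicate slides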
- test settings: WGA-A647 binding, 635 nm fluorescence, higher = more signal
Entries and their measured composite z-score follow.

{"columns": ["cpd smiles", "system", "composite z-score"],
 "data": [
  ["COc1ccc([Si](C)(C)[C@@H]2[C@@H](CC(=O)N3CCC[C@H]3CO)O[C@]3(C(=O)N(Cc4cccc(N5C(=O)c6cccc7cccc5c67)c4)c4ccccc43)[C@H]2C)cc1", "wheat germ agglutinin (Triticum aestivum), Alexa647-labelled", 1.21],
  ["CN(C)CCCCNC(=O)[C@H]1C[C@H]2C(=O)N[C@@H](CCCCN(C)C)C(=O)N2[C@H]1c1ccc(O)cc1", "wheat germ agglutinin (Triticum aestivum), Alexa647-labelled", 0.0466],
  ["CCOC(=O)C=C1C[C@@H](c2cccc([N+](=O)[O-])c2)O[C@@H](c2cccc([N+](=O)[O-])c2)O1", "wheat germ agglutinin (Triticum aestivum), Alexa647-labelled", 0.697],
  ["C=CCNC(=O)[C@@H]1[C@H]2C(=O)O[C@H](c3ccccc3)[C@H](c3ccccc3)N2[C@H](c2ccc(OCCO)cc2)[C@@]12C(=O)Nc1ccc(C#CCNC(N)=O)cc12", "wheat germ agglutinin (Triticum aestivum), Alexa647-labelled", 0.671]
]}

====

- assay protocol: HepG2 cell viability effects, profiling panel, calcein-AM fluorescence, 48 h, basal (AID 1164); also: test concentration not given here
- test settings: higher = more signal
// values below are reported z-score
readout type: z-score

{"columns": ["molecule", "readout type", "reported value"],
 "data": [
  ["C=CCNC(=O)[C@H]1[C@@H]2C(=O)O[C@@H](c3ccccc3)[C@@H](c3ccccc3)N2[C@@H](c2ccc(OCCO)cc2)[C@]12C(=O)N(C(=O)OCCOC)c1ccc(C#CCNC(N)=O)cc12", "z-score", 0.854],
  ["CC(C)N1C(=O)[C@@]2(Cc3ccccc31)c1ccccc1C(=O)N(Cc1ccccc1)[C@H]2c1ccc(CO)cc1", "z-score", -0.112],
  ["COc1ccc(CCNC(=O)[C@@H]2c3ccccc3C(=O)N(C(C)C)[C@H]2c2ccc(CO)cc2)cc1", "z-score", 0.188],
  ["CCOC(=O)C[C@H]1[C@H](OC(=O)c2cc3ccccc3oc2=O)[C@@H](NC(=O)Cc2ccc(OC)cc2)c2cc(OCCCO)ccc2N1C(=O)Cc1ccc(OC)cc1", "z-score", 0.37],
  ["CC(C)c1ccc(NN2C(C(O)c3ccccc3)C=CC3C(=O)N(c4ccccc4)C(=O)C32)cc1 (configuration not stated)", "z-score", 1.22],
  ["O=C1c2ccccc2[C@](Cc2ccccc2I)(C(=O)NCCN2CCOCC2)[C@H](c2ccc(CO)cc2)N1Cc1ccccc1C(F)(F)F", "z-score", -0.103],
  ["COC(=O)[C@@]1(Cc2ccc(F)cc2)[C@H]2c3cc(C(=O)N4CCCC4)n(C[C@H](O)CO)c3C[C@H]2CN1C(=O)c1ccccc1", "z-score", -0.674]
]}
